- Subject Of Test: T1, PSD-95 PDZ1-2 (dual PDZ domain of postsynaptic density protein 95) (human, UniProt P78352 55-249)
- T1 construct: Gly-Pro left at the N-terminus after HRV 3C cleavage of the tag; PSD-95 (disks large homolog 4, SAP-90), human, residues 55-249 of UniProt P78352 (98-292 of P78352-2); PDZ1, linker and PDZ2; No Cys residues in the construct; also called apo-PDZ1-2; PDZ1-2 double domain; source: E. coli BL21(DE3), purified (Ni-NTA, HRV 3C tag cleavage, negative Ni-NTA, Superdex 200 SEC); not shown: His6, …
- Experiment: ITC; 5 mM RRESEI in the syringe, PDZ1-2, PDZ1 or PDZ2 in the cell at nominally 0.13 mM; 25°C; 20 mM Tris-HCl, 150 mM NaCl pH 8.5; single class of sites; Kd and N could not be refined independently
- Condition: both partners purified
Value Kind: pKd
Numbers only, as −log10 of the molar value.

Task item: Requested read-out: pKd. Entry: RRESEI (C-terminal six residues (422-427) of the inwardly rectifying potassium channel Kir2.1; also called RRESEI ligand; ligand peptide; source: synthetic peptide, 98% purity; bought: Peptide Protein Research) [RRESEI peptide (last six residues, 422-427, of Kir2.1)]
Reply: 4.05
